- test-details: BKI aqueous solubility at pH 2 and 6.5
- Assay type: physicochemical
- experimental-context: second of two values; measured at pH 2 and 6.5
measurement-type: Solubility (second value) (µM)
# value in µM; strip the unit string

INPUT: # query: Solubility (second value) of entry CC(C)Cn1nc(-c2ccc3cc(OC4CC4)ccc3c2)c2c(N)ncnc21
OUTPUT: 2

====

- test-details: Plasma protein binding
- Assay type: in vitro ADME
measurement-type: Plasma Protein Binding (%)
# value in %; strip the unit string

Check out these entries, answers already filled in.
smiles-string | units-of-measure | experimental-value
CC(C)Cn1nc(-c2ccc3cc(OC4CC4)ccc3c2)c2c(N)ncnc21 | % | 99
CCOc1ccc2cc(-c3nn(CC4CCN(C)CC4)c4ncnc(N)c34)ccc2n1 | % | 37
CCOc1ccc2cc(-c3nn(CC4CCN(C)CC4)c4ncnc(N)c34)ccc2c1 | % | 84
Nc1ncnc2c1c(-c1ccc3nc(OC4CC4)ccc3c1)nn2CC1CCOCC1 | % | 84
CC(C)(O)Cn1cc(-c2ccc3nc(OC4CC4)ccc3c2)c2c(N)ncnc21 | % | 90

INPUT: # query: Plasma Protein Binding of entry CC(C)Cn1nc(-c2ccc3nc(OC4CC4)ccc3c2)c2c(N)ncnc21
OUTPUT: 86

INPUT: # query: Plasma Protein Binding of entry CCOc1ccc2cc(-c3nn(CC4CCNCC4)c4ncnc(N)c34)ccc2n1
OUTPUT: 55

====

- test-details: Single oral dose pharmacokinetics of BKIs in mice (plasma)
- Format: in vivo
- experimental-context: single oral dose 10 mg/kg, mouse plasma
measurement-type: Cmax (nM)
# value in nM; strip the unit string

Check out these entries, answers already filled in.
smiles-string | Cmax [nM]
CCOc1ccc2cc(-c3nn(CC4CCN(C)CC4)c4ncnc(N)c34)ccc2c1 | 800
Nc1ncnc2c1c(-c1ccc3nc(OC4CC4)ccc3c1)nn2CC1CCOCC1 | 900
CCOc1ccc2cc(-c3nn(CC4CCN(C)CC4)c4ncnc(N)c34)ccc2n1 | 300

INPUT: # query: Cmax of entry CC(C)(O)Cn1cc(-c2ccc3nc(OC4CC4)ccc3c2)c2c(N)ncnc21
OUTPUT: 4900

INPUT: # query: Cmax of entry CCOc1ccc2cc(-c3nn(CC4CCNCC4)c4ncnc(N)c34)ccc2n1
OUTPUT: 6500

INPUT: # query: Cmax of entry CC(C)Cn1nc(-c2ccc3cc(OC4CC4)ccc3c2)c2c(N)ncnc21
OUTPUT: 200

====

- test-details: BKI aqueous solubility at pH 2 and 6.5
- Assay type: physicochemical
- experimental-context: second of two values; measured at pH 2 and 6.5
- Description: Briefly, 1 μL of 20 mM dimethyl sulfoxide (DMSO) stock was added to 199 μL of buffer. Samples were vortexed and allowed to incubate at 25 °C overnight. The next day, each sample was centrifuged at 13800 rpm for 40 minutes at 25 °C. The supernatant was collected and 100 μL of the supernatant was added to 100 μL acetonitrile. Solutions were analyzed by HPLC/UV and were quantified based on a five-point calibration curve for each analyte.
Measured Solubility (second value), listed per entry for reference.
# value in µM; strip the unit string

Check out these entries, answers already filled in.
compound | Solubility (second value) [µM]
CC(C)(O)Cn1cc(-c2ccc3nc(OC4CC4)ccc3c2)c2c(N)ncnc21 [BKI 1649] | 83
CC(C)Cn1nc(-c2ccc3nc(OC4CC4)ccc3c2)c2c(N)ncnc21 [BKI 1556] | 7

We next turn to a different compound, shown below.
INPUT: # query: Solubility (second value) of entry Nc1ncnc2c1c(-c1ccc3nc(OC4CC4)ccc3c1)nn2CC1CCOCC1 [BKI 1557]
OUTPUT: 17

Source: paper PMC5853285
